- protocolDetails: Water solubility of monomer building blocks (Tables 1 and 2)
- Format: physicochemical
- runConditions: water
observable: solubility (µg/mL)

NC(C(=O)O)c1ccc(O)cc1 (stereo not shown) [Hydroxyphenyl glycine]
5000

* * *

- protocolDetails: Water solubility of monomer building blocks (Tables 1 and 2)
- Assay type: physicochemical
- runConditions: water; Table 2; unit inferred
observable: solubility (µg/mL)

O=C(O)CCc1ccc(O)cc1
1630
O=C(O)c1ccc(O)cc1 [4-hydroxy benzoic acid]
8000
O=C(O)CCCC(=O)O
640000
